target: recombinant human PD-L1 (Sino Biological Inc.) (human, UniProt Q9NZQ7 19-239); experiment: SPR, Biacore X100
Sequence (Q9NZQ7 19-239 limits assumed): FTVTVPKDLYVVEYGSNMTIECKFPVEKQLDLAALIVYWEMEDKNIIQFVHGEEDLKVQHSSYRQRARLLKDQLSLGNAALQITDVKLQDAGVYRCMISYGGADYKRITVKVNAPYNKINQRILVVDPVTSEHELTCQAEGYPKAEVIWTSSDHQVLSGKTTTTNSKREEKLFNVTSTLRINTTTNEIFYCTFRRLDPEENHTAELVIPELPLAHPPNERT
Value kind: kon (M⁻¹ s⁻¹)
Give a bare numeral; the unit M⁻¹ s⁻¹ is implied.

Request: Quick check: kon of humanized anti-human PD-L1 monoclonal antibody VLS10-VHS7 P2 (antibody, human IgG1, kappa, V domains shown) VH: QVQLVQSGAEVKKPGSSVKVSCTASGFNIEDTYIHWVRQAPGQGLEWMGRIDPASGNTKYDPKFQGRVTITADTSTNTAYMELSSLRSEDTAVYYCGRGLGAWFAYWGQGTLVTVSS VL: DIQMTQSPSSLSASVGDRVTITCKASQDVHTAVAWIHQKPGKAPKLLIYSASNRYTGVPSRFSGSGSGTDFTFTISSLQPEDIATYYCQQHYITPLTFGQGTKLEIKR ?
Result: 307000
